experiment.notes: in vitro
cond: male, Sprague-Dawley, rat, microsomes, CLint
reported.endpoint: microsomal CLint at 1 μM

Worked cases, answers included:
compound	microsomal CLint at 1 μM
CCCCC/C=C\C/C=C\CCCCCCCC(=O)OCCNC(=O)CCCCCCCCCCCCCCC	< 23.1 µL/min/mg
CCCCC/C=C\C/C=C\CCCCCCCC(=O)OCC(COC(=O)CCC(=O)OCCNC(=O)CCCCCCCCCCCCCCC)OC(=O)CCCCCCC/C=C\C/C=C\CCCCC (stereo not drawn)	33.6 µL/min/mg

Q: What value of microsomal CLint at 1 μM has been recorded for this entry: CCCCCCCCCCCCCCCC(=O)NCCOC(=O)CCC(=O)OC[C@H]1O[C@@](CO)(O[C@H]2O[C@H](CO)[C@@H](O)[C@H](O)[C@H]2O)[C@@H](O)[C@@H]1O
Result: 164 µL/min/mg

====

experiment.notes: Simulated intestinal fluid (SIF) stability in the presence of various enzymes
Type: in vitro ADME
cond: simulated intestinal fluid with carboxypeptidase A, pH 6.8, SIF + Carboxypeptidase A, 1 μM; read-out: Half-life
Everything with half-life at 1 μM lower than 40 min is class 0; everything else, including exactly 40 min, is class 1.

Worked examples, 6 molecules total:
molecule	assigned.label
CCCCCCCCCCCCCCCC(=O)NCCOC(=O)CCC(=O)OCC(COC(=O)CCCCCCC)OC(=O)CCCCCCC (centres unmarked) [Compound I-3, PEA-Succinate-Glycerol-Di-Caprylic]	class 1
CCCCCCCCCCCCCCCC(=O)NCCOC(=O)CCC	class 1
CCCCC/C=C\C/C=C\CCCCCCCC(=O)OCCNC(=O)CCCCCCCCCCCCCCC	class 1
CCCCC/C=C\C/C=C\CCCCCCCC(=O)OCC(COC(=O)CCC(=O)OCCNC(=O)CCCCCCCCCCCCCCC)OC(=O)CCCCCCC/C=C\C/C=C\CCCCC (centres unmarked)	class 1
CCCCCCCCCCCCCCCC(=O)NCCOC(=O)CCC(=O)OCC(COC(=O)CCC)OC(=O)CCC (centres unmarked)	class 1
CCCCCCCCCCCCCCCC(=O)NCCOC(=O)CCC(=O)OC[C@H]1O[C@@](CO)(O[C@H]2O[C@H](CO)[C@@H](O)[C@H](O)[C@H]2O)[C@@H](O)[C@@H]1O	class 0

Q: Please check the record CC/C=C\C/C=C\C/C=C\C/C=C\C/C=C\CCCC(=O)OCCNC(=O)CCCCCCCCCCCCCCC and state if its half-life at 1 μM is at or above 40 min.
Result: class 1

Q: Please check the record CCCCCCCCCCCCCCCC(=O)NCCOC(=O)CCC(=O)OCC(O)CO (centres unmarked) and state if its half-life at 1 μM is at or above 40 min.
Result: class 0

====

Please respond with reported half-life at 1 μM for every item in the list.
experiment.notes: in vitro
cond: male, CD-1, mouse, microsomes, Calculated half-life (in parentheses)
Answers are plain numbers, in h.

molecule	half-life at 1 μM [h]
CCCCC/C=C\C/C=C\CCCCCCCC(=O)OCCNC(=O)CCCCCCCCCCCCCCC	1.4

From here, focus on the item given below.
Q: What value of half-life at 1 μM has been recorded for this entry: CCCCCCCCCCCCCCCC(=O)NCCOC(=O)CCC(=O)OCC(COC(=O)CCCCCCC)OC(=O)CCCCCCC (centres unmarked) [Compound I-3, PEA-Succinate-Glycerol-Di-Caprylic]
Result: 1.67

Where these numbers come from: patent US11547681B2
